Tested on: Nocardia otitidiscaviarum
Test Name: Antimicrobial activity against Nocardia otitidiscaviarum after 72 hrs by microdilution method
Assay type: functional
Endpoint Name: MIC

Answered examples (2):
COc1c(N2C[C@@H]3CCCN[C@@H]3C2)c(F)cc2c(=O)c(C(=O)O)cn(C3CC3)c12 [MOXIFLOXACIN]	≤ 0.06 µg/mL
CC(=O)NC[C@H]1CN(c2ccc(N3CCOCC3)c(F)c2)C(=O)O1 [LINEZOLID]	≤ 0.06 µg/mL

Query: Identify the measured MIC of CN(C)c1cc(NC(=O)CNC(C)(C)C)c(O)c2c1C[C@H]1C[C@H]3[C@H](N(C)C)C(O)=C(C(N)=O)C(=O)[C@@]3(O)C(O)=C1C2=O [TIGECYCLINE] for Nocardia otitidiscaviarum.
Response: ≤ 0.06 µg/mL
